Test system: rat liver mitochondria (RLM)
Experiment: Mitochondrial transmembrane electric potential (ΔΨ) of RLM, safranine fluorescence
Type: biochemical
Conditions: succinate; 2.5 μM
Overview of recorded Repolarization Potential (ΔΨ in - mV) for various molecules

{"Molecule": "CS(=O)(=O)[O-].O=C(/C=C/c1cc(O)c(O)c(O)c1)NCCCCCC[P+](c1ccccc1)(c1ccccc1)c1ccccc1 [AntiOxCIN4]", "Repolarization Potential (ΔΨ in - mV)": 192.7}
{"Molecule": "CS(=O)(=O)[O-].O=C(/C=C/c1ccc(O)c(O)c1)NCCCCCCCCCC[P+](c1ccccc1)(c1ccccc1)c1ccccc1 [AntiOxCIN6]", "Repolarization Potential (ΔΨ in - mV)": 177.7}
{"Molecule": "CS(=O)(=O)[O-].O=C(/C=C/c1ccc(O)c(O)c1)NCCCCCC[P+](c1ccccc1)(c1ccccc1)c1ccccc1 [AntiOxCIN2]", "Repolarization Potential (ΔΨ in - mV)": 191.5}
{"Molecule": "CS(=O)(=O)[O-].O=C(/C=C/c1cc(O)c(O)c(O)c1)NCCCCCCCC[P+](c1ccccc1)(c1ccccc1)c1ccccc1 [AntiOxCIN5]", "Repolarization Potential (ΔΨ in - mV)": 190.6}
{"Molecule": "CS(=O)(=O)[O-].O=C(/C=C/c1ccc(O)c(O)c1)NCCCCCCCC[P+](c1ccccc1)(c1ccccc1)c1ccccc1 [AntiOxCIN3]", "Repolarization Potential (ΔΨ in - mV)": 186.7}
{"Molecule": "COC1=C(OC)C(=O)C(CCCCCCCCCC[P+](c2ccccc2)(c2ccccc2)c2ccccc2)=C(C)C1=O.CS(=O)(=O)[O-] [MitoQ, reference compound]", "Repolarization Potential (ΔΨ in - mV)": 182.7}
{"Molecule": "CS(=O)(=O)[O-].O=C(/C=C/c1cc(O)c(O)c(O)c1)NCCCCCCCCCC[P+](c1ccccc1)(c1ccccc1)c1ccccc1 [AntiOxCIN7]", "Repolarization Potential (ΔΨ in - mV)": 199.4}
